- test.system: T1, human CD70 on CD70 positive cell lines (human, UniProt P32970 1-193)
- T1 sequence (looked up): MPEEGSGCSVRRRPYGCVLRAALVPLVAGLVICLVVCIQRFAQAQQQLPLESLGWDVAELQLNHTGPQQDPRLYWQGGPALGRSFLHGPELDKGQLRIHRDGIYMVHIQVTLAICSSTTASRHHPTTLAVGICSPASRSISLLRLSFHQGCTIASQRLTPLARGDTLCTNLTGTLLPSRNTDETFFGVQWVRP
- experiment.notes: cell-based or functional assay
Exercise: state measured cytotoxicity IC50 (mean, n = 3), Caki-1 cells for each of the binders provided.
Mention the unit after the number when you answer.

Please review the entries below; each comes with its answer.
c1F6(293)-F8 (c1F6 conjugated to vcMMAF, eight drug units per antibody) (antibody, V domains shown, vcMMAF conjugated, loading level of eight drug units per antibody; attachment residues not stated) VH: QIQLVQSGPEVKKPGETVKISCKASGYTFTNYGMNWVKQAPGKGLKWMGWINTYTGEPTYADAFKGRFAFSLETSASTAYLQINNLKNEDTATYFCARDYGDYGMDYWGQGTSVTVSS VL: DIVLTQSPASLAVSLGQRATISCRASKSVSTSGYSFMHWYQQKPGQPPKLLIYLASNLESGVPARFSGSGSGTDFTLNIHPVEEEDAATYYCQHSREVPWTFGGGTKLEIKR : 2.17 ng/mL
h1F6 HMLA-F8 (humanized 1F6 derivative HMLA, hVHM and hVLA, conjugated to vcMMAF, eight drug units per antibody) (antibody, human IgG1, kappa, V domains shown, vcMMAF conjugated, loading level of eight drug units per antibody; attachment residues not stated) VH: QVQLVQSGAEVKKPGASVKVSCKASGYTFTNYGMNWVRQAPGQGLKWMGWINTYTGEPTYADAFKGRFAFSLDTSTSTAYMELRSLRSDDTAVYYCARDYGDYGMDYWGQGTTVTVSS VL: DIVMTQSPDSLAVSLGERATINCRASKSVSTSGYSFMHWYQQKPGQPPKLLIYLASNLESGVPDRFSGSGSGTDFTLTISSLQAEDVAVYYCQHSREVPWTFGQGTKVEIKR : 2.07 ng/mL
h1F6 HHLA-F8 (HHLA conjugated to vcMMAF, eight drug units per antibody) (antibody, human IgG1, kappa, V domains shown, vcMMAF conjugated, loading level of eight drug units per antibody; attachment residues not stated) VH: QVQLVQSGAEVKKPGASVKVSCKASGYTFTNYGMNWVRQAPGQGLEWMGWINTYTGEPTYADAFKGRFAFSLDTSTSTAYLQINSLRSDDTAVYYCARDYGDYGMDYWGQGTTVTVSS VL: DIVMTQSPDSLAVSLGERATINCRASKSVSTSGYSFMHWYQQKPGQPPKLLIYLASNLESGVPDRFSGSGSGTDFTLTISSLQAEDVAVYYCQHSREVPWTFGQGTKVEIKR : 1.87 ng/mL

cytotoxicity IC50 (mean, n = 3), Caki-1 cells reading for h1F6 HELA-F8 (humanized 1F6 derivative HELA, hVHE and hVLA, conjugated to vcMMAF, eight drug units per antibody) (antibody, human IgG1, kappa, V domains shown, vcMMAF conjugated, loading level of eight drug units per antibody; attachment residues not stated) VH: QVQLVQSGAEVKKPGASVKVSCKASGYTFTNYGMNWVRQAPGQGLEWMGWINTYTGEPTYADAFKGRVTMTRDTSISTAYMELSRLRSDDTAVYYCARDYGDYGMDYWGQGTTVTVSS VL: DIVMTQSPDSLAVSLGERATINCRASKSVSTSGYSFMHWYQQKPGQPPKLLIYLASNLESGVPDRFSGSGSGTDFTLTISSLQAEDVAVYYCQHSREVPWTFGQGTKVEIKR : 2.87 ng/mL
